Origin of the recorded values: patent US9382208B1

# ASSAY_TARGET: rat mGlu2 (Rattus norvegicus)
# Construct: expressed in transfected cells
# PROTOCOL_TEXT: mGlu2 Ca2+ flux assay
# Assay type: cell-based
# ASSAY_CONTEXT: Gα15 HEK293 cells stably expressing rat mGlu2; glutamate EC80 addition; read-out: rat mGlu2 IC50
# Experimental: Gα15 HEK293 cells stably expressing rat mGlu2 were plated in black-walled, clear-bottomed, poly-D-lysine coated 384-well plates in 20 μL of assay medium (DMEM containing 10% dialyzed FBS, 20 mM HEPES, and 1 mM sodium pyruvate) at a density of 12K cells/well. […] Ca^2+ flux was measured using the Functional Drug Screening System (FDSS7000, Hamamatsu, Japan). […] Calcium fluorescence measures were recorded as fold over basal fluorescence; raw data was then normalized to the maximal response to glutamate. […]
PROPERTY: IC50 (µM)
Write down the numeric answer in µM and omit the unit.

// known answers, use as guide
structure_as_smiles=C[C@@H]1CN(Cc2ccc3c(c2)c(=O)c(C(N)=O)cn3-c2ccc(F)cc2)C[C@H](C)O1 assay_target="rat mGlu2 (Rattus norvegicus)" uom=µM value_reported=0.222
structure_as_smiles=CN(Cc1ccc2c(c1)c(=O)c(C(N)=O)cn2-c1ccc(F)cc1)C1CCCC1 assay_target="rat mGlu2 (Rattus norvegicus)" uom=µM value_reported=2.19
structure_as_smiles=Cc1cc(COc2ccc3c(c2)c(=O)c(C(N)=O)cn3-c2ccc(F)cc2)ccn1 assay_target="rat mGlu2 (Rattus norvegicus)" uom=µM value_reported=0.422

### Prompt Name the recorded IC50 for `CN(Cc1ccc2c(c1)c(=O)c(C(N)=O)cn2-c1ccc(F)cc1)C1CC(F)(F)C1` .
### Response 0.397

----------
# ASSAY_TARGET: rat mGlu2 (Rattus norvegicus, UniProt P31421)
# Construct: expressed in transfected cells
# Sequence (P31421 19-872): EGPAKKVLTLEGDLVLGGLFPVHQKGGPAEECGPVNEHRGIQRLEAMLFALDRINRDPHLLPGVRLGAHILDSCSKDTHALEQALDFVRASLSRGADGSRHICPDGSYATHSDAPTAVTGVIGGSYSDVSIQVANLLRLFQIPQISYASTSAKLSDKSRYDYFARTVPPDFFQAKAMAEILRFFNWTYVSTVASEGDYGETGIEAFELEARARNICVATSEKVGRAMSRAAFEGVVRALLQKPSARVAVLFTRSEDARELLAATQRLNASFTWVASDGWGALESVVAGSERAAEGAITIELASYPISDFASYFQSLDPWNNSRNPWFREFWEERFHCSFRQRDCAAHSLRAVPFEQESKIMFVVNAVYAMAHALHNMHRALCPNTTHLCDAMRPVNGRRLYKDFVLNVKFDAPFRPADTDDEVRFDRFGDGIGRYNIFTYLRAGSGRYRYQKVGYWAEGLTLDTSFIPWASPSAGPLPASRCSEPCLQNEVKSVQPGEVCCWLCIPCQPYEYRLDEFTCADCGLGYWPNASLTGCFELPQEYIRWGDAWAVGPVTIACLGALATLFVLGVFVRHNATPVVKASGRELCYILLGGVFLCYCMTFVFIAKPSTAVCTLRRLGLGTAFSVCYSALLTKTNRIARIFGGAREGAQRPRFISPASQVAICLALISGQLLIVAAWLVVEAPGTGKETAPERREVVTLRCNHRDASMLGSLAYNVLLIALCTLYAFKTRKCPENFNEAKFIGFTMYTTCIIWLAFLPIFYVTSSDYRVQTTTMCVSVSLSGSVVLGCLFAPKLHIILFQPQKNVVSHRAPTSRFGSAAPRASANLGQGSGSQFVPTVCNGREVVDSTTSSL
# PROTOCOL_TEXT: mGlu2 Ca2+ flux assay
# Format: cell-based
# ASSAY_CONTEXT: Gα15 HEK293 cells stably expressing rat mGlu2; glutamate EC80 addition; read-out: rat mGlu2 IC50
PROPERTY: pIC50
Entry type: numeric. Quantity: pIC50, the -log10 of concentration in molar units.

// known answers, use as guide
structure_as_smiles=NC(=O)c1cn(-c2ccc(F)cc2)c2ccc(N3Cc4cccnc4C3)cc2c1=O property=pIC50 value_reported=5.30
structure_as_smiles=CC1(C)CN(Cc2ccc3c(c2)c(=O)c(C(N)=O)cn3-c2ccc(F)cc2)CCO1 property=pIC50 value_reported=6.85
structure_as_smiles=Cc1ccc(COc2ccc3c(c2)c(=O)c(C(N)=O)cn3-c2ccc(F)cc2)cn1 property=pIC50 value_reported=6.27
structure_as_smiles=NC(=O)c1cn(-c2ccc(F)cc2)c2ccc(CCc3ccc(C(F)(F)F)nc3)cc2c1=O property=pIC50 value_reported=5.81

### Prompt Entry `NC(=O)c1cn(-c2ccc(F)cc2)c2ccc(OCc3ccncc3)cc2c1=O` , system rat mGlu2 (Rattus norvegicus, UniProt P31421): what pIC50 was measured?
### Response 5.91

### Prompt Entry `Cc1ccc(OCc2ccc3c(c2)c(=O)c(C(N)=O)cn3-c2ccc(F)cc2)cn1` , system rat mGlu2 (Rattus norvegicus, UniProt P31421): what pIC50 was measured?
### Response 6.58

### Prompt Entry `NC(=O)c1cn(-c2ccc(F)cc2)c2ccc(CCc3cccnc3)cc2c1=O` , system rat mGlu2 (Rattus norvegicus, UniProt P31421): what pIC50 was measured?
### Response 6.32

### Prompt Entry `Cc1ncc(Oc2ccc3c(c2)c(=O)c(C(N)=O)cn3-c2ccc(F)cc2)cn1` , system rat mGlu2 (Rattus norvegicus, UniProt P31421): what pIC50 was measured?
### Response 5.35
